- TARGET: human RORγt ligand binding domain (RORγt LBD) (Homo sapiens (Human))
- Sequence (P51449 other isoform, or with tags, fused parts or gaps): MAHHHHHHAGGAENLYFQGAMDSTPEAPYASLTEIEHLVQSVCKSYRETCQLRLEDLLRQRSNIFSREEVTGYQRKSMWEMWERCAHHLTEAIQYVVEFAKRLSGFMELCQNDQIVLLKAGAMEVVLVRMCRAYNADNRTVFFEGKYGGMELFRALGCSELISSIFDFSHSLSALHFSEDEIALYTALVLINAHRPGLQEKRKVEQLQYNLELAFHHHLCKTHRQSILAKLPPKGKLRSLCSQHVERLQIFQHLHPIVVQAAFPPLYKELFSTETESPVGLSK
- PROTOCOL: RORγt ThermoFluor assay (thermal shift, binding affinity)
- TEST_PARAMETERS: estimated from thermal shift concentration response
OUTCOME_MEASURE: Kd (µM)

COMPOUND	TARGET	VALUE_UNITS	ENDPOINT_VALUE
CCN(CC)c1nc2ccc(C(O)(c3ccc(Cl)cc3)c3cncn3C)cc2c(Cl)c1Oc1ccccc1 (centres unmarked) [Example 3a]	human RORγt ligand binding domain (RORγt LBD) (Homo sapiens (Human))	µM	0.059

(a) Cn1cncc1C(O)(c1ccc(C(F)(F)F)nc1)c1ccc2nc(C#N)c(Oc3ccccc3)c(C#N)c2c1 (single isomer, unassigned) [Example 22b]
(b) Cn1cncc1C(O)(c1ccc(Cl)cc1)c1ccc2nc(Cl)c(Oc3ccccc3)c(Cl)c2c1 (centres unmarked) [Example 1]
Task: Compare a and b by numeric Kd and name the larger one. Give the chosen item's label as your response.
Output: b
(b: 0.11 µM, a: 0.0029 µM)

(a) CN(C)c1nc2ccc(C(O)(c3ccc(Cl)cc3)c3cncn3C)cc2c(Cl)c1Oc1ccccc1 (centres unmarked) [Example 16]
(b) Cn1cncc1C(O)(c1ccc(C(F)(F)F)nc1)c1ccc2nc(N3CCC3)c(Oc3ccc(Cl)cc3)c(Cl)c2c1 (centres unmarked) [Example 30a]
Task: // compare measured Kd between a and b ; output the lower one Give the chosen item's label as your response.
Output: b
(b: 0.0018 µM, a: 0.031 µM)
